experiment summary: NCI Yeast Anticancer Drug Screen. Data for the rad50 strain (AID 155);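 further: 0% = growth of vehicle-only cultures of the same strain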
condition label: S. cerevisiae rad50 strain growth inhibition; at 50.0 µM; stronger effect = higher value
About 79,000 compounds went through this panel and 15% of them were active in at least one assay; those are over-represented in the sample as a whole.
measured endpoint: growth inhibition (%)
Write the value in % as a bare number.

Q: Item `CCSc1sc(=Nc2ccc(N=c3sc(C)c(SC)s3)cc2)sc1-c1ccc(C)cc1` has what recorded growth inhibition?
Ans: -33.6

Q: Item `O=C(Oc1ccc(C(=O)c2ccc(C(=O)c3ccc(OC(=O)c4cccc(Br)c4)cc3)cc2)cc1)c1cccc(Br)c1` has what recorded growth inhibition?
Ans: 11.2

Q: Item `Cc1cc(S(=O)(=O)Nc2nnc3c(Cl)cc(C(F)(F)F)cn23)c(S)cc1Cl` has what recorded growth inhibition?
Ans: -30.2

Q: Item `Cn1c2c(c3ccccc31)CCN(CCCCN1CCc3c(n(C)c4ccccc34)C1=O)C2` has what recorded growth inhibition?
Ans: -0.05

Q: Item NC(=O)CNc1ccc(CC2CCOC2=O)cc1 (stereo not given) has what recorded growth inhibition?
Ans: -7.45

---

experiment summary: NCI Yeast Anticancer Drug Screen. Data for the mec2-1 strain (AID 157)
condition label: S. cerevisiae mec2-1 strain, at 50.0 µM, stronger effect = higher value
About 79,000 compounds went through this panel and 15% of them were active in at least one assay; those are over-represented in the sample as a whole.
measured endpoint: growth inhibition (%)
Write the value in % as a bare number.

Q: Item `Cc1ccc(C(=O)NO)cc1` has what recorded growth inhibition?
Ans: -5.6

Q: Item COc1cc(C2C3=C(COC3=O)Oc3cc4c(cc32)OCO4)ccc1OC(C)=O (stereo not given) has what recorded growth inhibition?
Ans: 5.55

Q: Item `O=S(=O)(N/N=C/c1ccc(/C=N/NS(=O)(=O)c2ccccc2)cc1)c1ccccc1` has what recorded growth inhibition?
Ans: -15.8

Q: Item OC1(Cl)c2cccc3cccc(c23)C1(O)Cl (stereo not given) has what recorded growth inhibition?
Ans: 5.8

Q: Item `Cc1cc(C)nc(NS(=O)(=O)c2ccc(NC(=O)c3cccc4c(Nc5ccc(S(=O)(=O)N=C(N)N)cc5)c5ccc(Cl)cc5nc34)cc2)n1` has what recorded growth inhibition?
Ans: 23.3

---

experiment summary: NCI Yeast Anticancer Drug Screen. Data for the cln2 rad14 strain (AID 165);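 further: 0% = growth equal to vehicle treated cultures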
condition label: S. cerevisiae cln2 rad14 strain, at 50.0 µM
Compounds without any hit were thinned out: in the full panel of roughly 79,000, 15% have a hit. Activity calls are given as the source filed them. Rule as the data show it: active = growth inhibition above about 70%; inactive = the rest. *1 amine or outer side, *2 acyl side, *3 side chain or, on linkers, in order; H or OH if unused. Where a SMILES comes first, the peptide text is derived from it. Bridges are numbered along the chain shown (N, C = ends). Roman numbers before positions name the chains, in order. [ ]: non-standard residue; d: D form. Actinocin(9to1) = Cc1c2oc3c(C)ccc(C(=O)[*:1])c3nc-2c(C(=O)[*:2])c(N)c1=O; NMeT = CN[CH](C(=O)O)[CH](C)O; Sar = CNCC(=O)O
Write down the outcome that applies. Available outcomes: active, inactive

Q: # outcome recorded in this test, key = `O=C(N/N=C1\CCc2ccccc2C1)N/N=C1\CCc2ccccc2C1`
Ans: inactive

Q: # outcome recorded in this test, key = `N#Cc1cccc(N(C(=O)c2ccccc2)c2ccccc2)n1`
Ans: inactive

Q: # outcome recorded in this test, key = CCCCC1(C=O)NC(=O)N(C)C1=O (centres undefined)
Ans: inactive

Q: # outcome recorded in this test, key = O=C1c2ccccc2OC(Cl)(c2ccccc2)C1Cl (centres undefined)
Ans: inactive

Q: # outcome recorded in this test, key = CCCC(CCC(C)=O)[N+](=O)[O-] (centres undefined)
Ans: inactive

Q: # outcome recorded in this test, key = `CCN(Cc1ccccc1)C(=O)Nc1c(Cl)cccc1Cl`
Ans: inactive

Q: # outcome recorded in this test, key = Cc1c2oc3c(C)ccc(C(=O)NC4C(=O)NC(C(C)C)C(=O)N5CCCC5C(=O)N(C)CC(=O)N(C)C(C(C)O)C(=O)OC4C)c3nc-2c(C(=O)NC2C(=O)NC(C(C)C)C(=O)N3CCCC3C(=O)N(C)CC(=O)N(C)C(C(C)O)C(=O)OC2C)c(N)c1=O (centres undefined) (I: TVP[Sar][NMeT] / II: TVP[Sar][NMeT]; ester I:1-I:C, II:1-II:C; linker I:N-II:N via Actinocin(9to1); configuration not given here)
Ans: inactive

Q: # outcome recorded in this test, key = `O=C(CCn1ccnc1[N+](=O)[O-])NCCCn1ccnc1[N+](=O)[O-]`
Ans: inactive

Q: # outcome recorded in this test, key = `N#Cc1c(-c2ccc(Cl)cc2)cn2c1[nH]c(=O)c1c3c(sc12)CCCC3`
Ans: inactive

Q: # outcome recorded in this test, key = `CC(C)CCc1c(N)nc(N)[nH]c1=O`
Ans: inactive

Q: # outcome recorded in this test, key = CS(=O)(=O)OC1COC(c2ccccc2)OC1C1OC(c2ccccc2)OCC1OS(C)(=O)=O (centres undefined)
Ans: inactive

Q: # outcome recorded in this test, key = `Cc1c(N)cc2c(c1[N+](=O)[O-])C(C)(C)CC2(C)C`
Ans: inactive

Q: # outcome recorded in this test, key = `c1ccc(CNc2ncncc2-c2ccccc2)cc1`
Ans: inactive

Q: # outcome recorded in this test, key = `CCOC(=O)c1c(Nc2ccccc2O)oc2ccccc12`
Ans: inactive

Q: # outcome recorded in this test, key = CC(=O)OC1C(C)OC(n2cnc3c(=O)[nH]cnc32)C1OC(C)=O (centres undefined)
Ans: inactive

Q: # outcome recorded in this test, key = `O=C(NNc1nc(CCl)cs1)c1ccccc1Cl`
Ans: inactive

Q: # outcome recorded in this test, key = `COc1ccc(-c2cc(-c3ccccc3)c(-c3ccccc3)nn2)cc1CN1CCOCC1`
Ans: inactive

Q: # outcome recorded in this test, key = `O=C(CCCc1ccccn1)c1ccccc1`
Ans: inactive

Q: # outcome recorded in this test, key = `NNC(=O)CC1(O)CCCCC1`
Ans: inactive

Q: # outcome recorded in this test, key = `CCc1ccccc1Cc1ccccc1`
Ans: inactive

Q: # outcome recorded in this test, key = CN(C)C1CCC(C=C(C2CCC(CC(=O)O)CC2)C2CCC(CC(=O)O)CC2)CC1 (centres undefined)
Ans: inactive

Q: # outcome recorded in this test, key = `CCCCCCCCCC(=O)N/N=C/c1ccccc1Cl`
Ans: inactive

Q: # outcome recorded in this test, key = `Cn1c(-c2ccc(-c3cc(-c4cccs4)c(-c4cccs4)n3C)cc2)cc(-c2cccs2)c1-c1cccs1`
Ans: inactive

Q: # outcome recorded in this test, key = COc1ccc(COCC[C@H](C)OC2OC(CO)C(O)C(O)C2O)cc1 (some centres undefined)
Ans: inactive

Q: # outcome recorded in this test, key = `O=C(NCc1ccc([N+](=O)[O-])cc1)c1ccccc1`
Ans: inactive

Q: # outcome recorded in this test, key = C=C1CC2(CC(c3ccccc3Cl)OC(c3ccccc3Cl)C2)OC1=O (centres undefined)
Ans: inactive

Q: # outcome recorded in this test, key = `CSC(=NNC(N)=O)SC`
Ans: inactive

Q: # outcome recorded in this test, key = `O=C(NN1C(=O)c2cccc3cccc(c23)C1=O)NN1C(=O)c2cccc3cccc(c23)C1=O`
Ans: active

Q: # outcome recorded in this test, key = `CCCCCCCCCCCCCCC[N+](C)(C)C`
Ans: active

Q: # outcome recorded in this test, key = COC(=O)C(CO)NC(=O)C(CC(C)C)NC(=O)C(CC(C)C)NC(=O)OCc1ccccc1 (centres undefined)
Ans: inactive

Q: # outcome recorded in this test, key = `COc1ccc(OC)c(/C=C/c2ccc(NC(=O)Nc3ccccc3Cl)cc2)c1`
Ans: inactive

Q: # outcome recorded in this test, key = COC(=O)C(C(=O)C(=O)Nc1cccc(OC)c1)c1cnc2ccccc2n1 (centres undefined)
Ans: inactive

Q: # outcome recorded in this test, key = `Cc1c(N/C=C(\C#N)C(=O)c2ccc(Cl)cc2)c(=O)n(-c2ccccc2)n1C`
Ans: inactive

Q: # outcome recorded in this test, key = `CCNC(=S)N/N=C/c1cc(OC)ccc1O`
Ans: inactive

Q: # outcome recorded in this test, key = `CCOC(=O)c1c(C)c2c(n1C)CC/C(=C\N1CCOCC1)C2=O`
Ans: inactive

Q: # outcome recorded in this test, key = COc1cc(C2C3=C(COC3=O)Oc3cc4c(cc32)OCO4)ccc1OC(C)=O (centres undefined)
Ans: inactive

Q: # outcome recorded in this test, key = CC1OC(CC(=O)O)CC2=C1C(=O)c1c(O)cccc1C2=O (centres undefined)
Ans: inactive

Q: # outcome recorded in this test, key = C=CCOC(C)n1c(C)cc(=O)n(C(C)OCC=C)c1=O (centres undefined)
Ans: inactive

Q: # outcome recorded in this test, key = `CNC(=O)OCc1c(COC(=O)NC)c(C)n(-c2ccccc2)c1C`
Ans: inactive

Q: # outcome recorded in this test, key = `CC1(C)CS(=O)(=O)CC(C)(C)C(=N/N)/C1=N\N`
Ans: inactive

Q: # outcome recorded in this test, key = `C(=Nc1ccc2c(c1)Cc1ccccc1-2)c1ccccn1`
Ans: inactive

Q: # outcome recorded in this test, key = `CCCCCCCCCCCCCCCC(=O)OCC(=O)O`
Ans: inactive

Q: # outcome recorded in this test, key = `O=C1Cc2ccccc2CCc2ccccc21`
Ans: inactive

Q: # outcome recorded in this test, key = CCOC1CCC=CO1 (centres undefined)
Ans: inactive
